# assayTarget: ΔPH-Akt2 (Homo sapiens, UniProt P31751)
# Construct: PCR was performed using the full length Akt2 gene as template; biotin tag (from pS2neo vector); made in house; host or cells: Drosophila S2 cells
# Sequence (P31751 with tags, fused parts or gaps): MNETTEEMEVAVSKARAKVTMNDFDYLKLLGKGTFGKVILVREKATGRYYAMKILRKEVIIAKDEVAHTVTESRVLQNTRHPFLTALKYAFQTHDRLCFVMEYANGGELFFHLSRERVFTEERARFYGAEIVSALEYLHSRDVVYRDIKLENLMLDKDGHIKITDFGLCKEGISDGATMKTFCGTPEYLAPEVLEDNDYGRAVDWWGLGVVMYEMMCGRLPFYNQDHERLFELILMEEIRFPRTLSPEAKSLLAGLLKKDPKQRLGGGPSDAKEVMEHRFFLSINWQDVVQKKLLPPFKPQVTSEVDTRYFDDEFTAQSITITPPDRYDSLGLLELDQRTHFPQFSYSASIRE
# protocolSummary: Akt kinase assay, GSK3 peptide substrate, Akt2 delta PH
# Type: biochemical
# conditions: pleckstrin homology domain deleted Akt2, GSK3 peptide substrate
outcomeMeasure: IC50

IC50 for CN(C)CC(C)(C)CNc1nn2c(-c3ccccc3)nnc2cc1C1CCC1 is > 100 µM

* * *

# assayTarget: PKA catalytic subunit (Bos taurus, UniProt P00517)
# Construct: purchased UBI (Upstate Biotechnology, Inc.) 14-114
# protocolSummary: PKA assay (counter screen)
# Type: biochemical
# conditions: Kemptide substrate; read-out: Counter screens IC50 (μM) PKA
outcomeMeasure: IC50 (µM)
Give just the numeric value; µM need not be written.

IC50 for COc1cc(-c2[nH]c(C3CCCN3C)nc2-c2ccncc2)ccc1Cl (stereo not shown) is 0.076

* * *

# assayTarget: Human Akt1 (Homo sapiens)
# Construct: a middle T tag was added to the 5′ end of the full length Akt1 gene; biotin tag (from pS2neo vector); made in house; host or cells: Drosophila S2 cells
# Sequence (P31749 whole entry): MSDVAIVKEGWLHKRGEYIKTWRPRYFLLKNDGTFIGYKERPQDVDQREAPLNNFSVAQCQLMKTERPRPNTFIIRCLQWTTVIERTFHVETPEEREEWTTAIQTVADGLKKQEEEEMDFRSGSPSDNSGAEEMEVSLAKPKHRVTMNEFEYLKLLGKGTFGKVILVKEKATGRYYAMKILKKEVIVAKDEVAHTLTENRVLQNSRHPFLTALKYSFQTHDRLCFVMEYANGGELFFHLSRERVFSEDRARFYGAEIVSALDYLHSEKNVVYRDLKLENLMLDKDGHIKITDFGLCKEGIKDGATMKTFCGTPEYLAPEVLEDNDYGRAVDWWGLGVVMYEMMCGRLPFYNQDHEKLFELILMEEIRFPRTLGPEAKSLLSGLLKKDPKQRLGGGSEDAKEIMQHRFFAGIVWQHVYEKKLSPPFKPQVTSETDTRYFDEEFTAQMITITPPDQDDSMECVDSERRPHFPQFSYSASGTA
# protocolSummary: Akt kinase assay, GSK3 peptide substrate, Akt1
# Type: biochemical
# conditions: activated full length Akt1, GSK3 peptide substrate
outcomeMeasure: IC50 (µM)
Give just the numeric value; µM need not be written.

IC50 for COc1cc(-c2[nH]c(C3CCCN3C)nc2-c2ccncc2)ccc1Cl (stereo not shown) is 51.7
